biological target: T1, TRBV5-1 antigenic peptide No. 1 (TQTPRYLIKTRGQQ), peptide alone (Homo sapiens); assay: ELISA; confirmatory monoclonal phage ELISA; antigens peptide alone, peptide-BSA, peptide-biotin; controls PBS, 10% BSA-PBS, PBS-streptavidin; phage dilution factors 1, 3, 9; details: one partner purified
T1 construct: short form of antigenic peptide No. 1 of the TRBV5-1 segment of the human TCR beta chain; also called Ag1; Peptide N. 1; source: synthetic peptide (Proteogenix)
T1 chain: TQTPRYLIKTRGQQ
The reader will find reported ELISA signal at phage dilution factor 3 values listed item by item below.

Binder	ELISA signal at phage dilution factor 3
scFv clone A8 (scFv, V domains shown, tested as phage clone in the confirmatory monoclonal ELISA; source: phage display clone from the human naive scFv library LiAb-SFMAX (Proteogenix), amplified in E. coli TG1) VH: QVQLVQSGPEMKKAGASVRVSCKGSGYTFSSFDINWVRQVPGQGLEWMGWMNPDTGNTGLAQKFQGRVTMTRDTSIRTAYMELRSLRSDDTAVYYCARDAPRNGRGMDVWGQGTMVTVSS VL: SYELTQPPSVSVSPGQTARITCSGDALPKQYAYWYQQKPGQAPVLVIYQDTKRPSGIPERFSGSSSGTTVTLTISGVQAEDEADYYCQSADSSGTYPVFGGGTKLTVL	0.37
scFv clone A12 (scFv, V domains shown, tested as phage clone in the confirmatory monoclonal ELISA; lead scFv from which the r-hIgG1 mAb was made; also called lead scFv; source: phage display clone from the human naive scFv library LiAb-SFMAX (Proteogenix), amplified in …) VH: QVQLQQWGAGLLKPSETLSLTCAVYGGSFSGYYWSWIRQPPGKGLEWIGEINHSGSTNYNPSLKSRVTISVDTSKNQFSLKLSSVTAADTAVYYCARWDLDYWGQGTLVTVSS VL: EIVLTQSPLSLPVTLGQSASISCRSSQSLVHSDGNTYLNWFQQRPGQSPRRLIYQVSKRDSGVPDRFSGSGSGTDFTLRISRVEAEDVGFYYCMQGTHWPPITFGQGTRLEIK	0.33
scFv clone D5 (scFv, V domains shown, tested as phage clone in the confirmatory monoclonal ELISA; source: phage display clone from the human naive scFv library LiAb-SFMAX (Proteogenix), amplified in E. coli TG1) VH: QVQLVQSGAEVKKPGASVKVSCKPSGYYFNGYDITWVRQAIGQGLEWMGWMNPNSGNRDYAHQFQGRLTMTWDTSLSTAYLELNNLQSDDTAIYYCARERVSSGLDFWGQGTLVTVSS VL: SYELTQPPSVSVSPGQTARITCSGDALPKQYAYWYQQKPGQAPVLLIYKDSERPSGIPERFSGSSSGTTVTLTISGVQAEDEADYYCQSADSSGTYVVFGGGTQLTVL	0.32

The measurements presented in this section are drawn from paper PMC11686114.
